For each record, write down the corresponding IC50, TF-1 proliferation.
# tgt: T1, IL6-R on U266 cells (human, UniProt P08887 20-468)
# T1 sequence (looked up): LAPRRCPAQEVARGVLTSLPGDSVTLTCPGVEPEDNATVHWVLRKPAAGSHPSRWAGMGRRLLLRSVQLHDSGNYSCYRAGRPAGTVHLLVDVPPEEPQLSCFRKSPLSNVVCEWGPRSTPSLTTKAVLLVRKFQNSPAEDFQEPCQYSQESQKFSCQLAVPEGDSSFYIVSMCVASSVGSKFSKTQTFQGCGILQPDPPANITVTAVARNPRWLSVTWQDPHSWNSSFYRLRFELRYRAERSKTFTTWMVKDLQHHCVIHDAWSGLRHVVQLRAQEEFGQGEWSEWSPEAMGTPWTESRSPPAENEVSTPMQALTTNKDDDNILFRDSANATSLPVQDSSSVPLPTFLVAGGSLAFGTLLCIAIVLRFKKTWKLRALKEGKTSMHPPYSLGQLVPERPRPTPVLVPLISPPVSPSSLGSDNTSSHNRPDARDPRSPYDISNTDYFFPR
# assayProtocol: cell-based or functional assay
Kindly provide the numeric value in nM only, without the unit symbol.

Prompt: // query IC50, TF-1 proliferation value for entry IL6R07 (VHH, also called PMP33A3; PMP 33 A3) VHH: EVQLVESGGGLVQPGGSLRLSCAASGFTLDYGAIGWFRQAPGKEREGVSCISSSTGSTYYADSVKGRFTISRDNGKNTVYLQMNSLKPEDTAVYYCAADKMWSPCLVAANEEALFEYDYWGQGTQVTVSS
Completion: 35

Prompt: GET /values?readout=IC50, TF-1 proliferation&item= IL6R02 (VHH, also called PMP30C11; PMP 30 C11) VHH: EVQLVESGGGLVQAGGSLRLSCAASGRTFSSYDMGWYRQAPGKEREFVAVISRSGSSTYYADSVKGRFTISRDNAKNTVYLQMNSLKPEDTAIYYCKAEVVAGDYDYWGQGTQVTVSS
Completion: 29.7

Prompt: Look at this binder and give its reported IC50, TF-1 proliferation. IL6R04 (VHH, also called PMP32C9; PMP 32 C9) VHH: EVQLVESGGGLVQAGGSLRLSCAASGFTFDDYDIGWFRQAPGKEREGVSGISSSDGNTYYADSVKGRFTISSDNAKNTVYLQMNSLKPEDTAVYYCAAEPPDSSWYLDGSPEFFKYWGQGTQVTVSS
Completion: 0.545
